Sourced from the RNAGym collection of RNA variant scans (doi:10.1126/science.aae0568)

B1: tRNA (parent)
chain: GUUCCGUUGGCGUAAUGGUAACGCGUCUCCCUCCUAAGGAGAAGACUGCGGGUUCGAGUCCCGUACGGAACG

# Variants of: B1
# experimentSummary: yeast fitness relative to wild type (ratio to wild type); higher = fitter; tRNA-Arg(CCU), competitive growth, 37 C, YPD
This sample holds only a part of the variants without activity.
reportedEndpoint: yeast fitness

Data request: What value of measured yeast fitness is listed for C4U A37G G39C A65G ?
Data returned: ≤ 0.5

Data request: Query (variant): G6C G25A A43U G67C ; field requested: yeast fitness
Data returned: ≤ 0.5

Data request: Which yeast fitness is reported for this variant? C4A G6A C11A C22U C29U C55A G68U
Data returned: ≤ 0.5

Data request: Sample C29U C55U A65G — what was its yeast fitness?
Data returned: ≤ 0.5

Data request: For the variant C5A A15C C27U C30U U32G U35A A37C U54A , what yeast fitness is on record?
Data returned: ≤ 0.5

Data request: // yeast fitness lookup, key: U7A A14G C31U G39C A40C A45U U47C G68C
Data returned: ≤ 0.5

Data request: I would be grateful if you could share the reported yeast fitness for G6A C34A U47G C49G C60G .
Data returned: ≤ 0.5

Data request: Item G6A C24U U59C A69C has what recorded yeast fitness?
Data returned: ≤ 0.5

Data request: Endpoint output: yeast fitness of G12C C34A G44A C46U G68A . Value?
Data returned: ≤ 0.5

Data request: Sample A14C U16G A21G A70U — what was its yeast fitness?
Data returned: ≤ 0.5

Data request: Need yeast fitness of C24G C27U C33U G50A , thanks.
Data returned: ≤ 0.5
